test: Body weight / toxicity of a single intraperitoneal injection in HCT-116 colon tumor-bearing nude mice; settings: Day 30; single IP injection (QD×1); D1 and D2 400 mg/kg, D3 350 mg/kg, D4 300 mg/kg
MEASUREMENT_KIND: Average rate of weight change of the animals
Include the unit after the number when you answer.

Check out these entries, answers already filled in.
For CCCCOC(=O)Nc1ccn([C@H]2O[C@@H](COC(=O)CCC(=O)OC[C@H]3O[C@@H](n4ccc(NC(=O)OCCCC)nc4=O)C(F)(F)[C@@H]3O)[C@H](O)C2(F)F)c(=O)n1 (stereo in doubt) [Compound D2] the compound record lists Average rate of weight change of the animals as 2.28 ± 1.75%

For CCCCOC(=O)Nc1ccn(C2OC(COC(=O)CCC(=O)OC[C@H]3O[C@@H](n4ccc(NC(=O)OCc5ccccc5)nc4=O)C(F)(F)[C@@H]3O)C(O)C2(F)F)c(=O)n1 (stereo in doubt) [Compound D4] the compound record lists Average rate of weight change of the animals as 9.36 ± 2.21%

For O=C(CCCC(=O)OC[C@H]1O[C@@H](n2ccc(NC(=O)OCc3ccccc3)nc2=O)C(F)(F)[C@@H]1O)OC[C@H]1O[C@@H](n2ccc(NC(=O)OCc3ccccc3)nc2=O)C(F)(F)[C@@H]1O [Compound D3] the compound record lists Average rate of weight change of the animals as 15.37 ± 2.93%

Next, consider the following compound.
For CCCCOC(=O)Nc1ccn(C2OC(COC(=O)CCCC(=O)OC[C@H]3O[C@@H](n4ccc(NC(=O)OCCCC)nc4=O)C(F)(F)[C@@H]3OC(=O)OCCCC)C(OC(=O)OCCCC)C2(F)F)c(=O)n1 (stereo in doubt) [Compound D1] the compound record lists Average rate of weight change of the animals as 14.22 ± 2.22%

---

test system: HCT-116 human colon cancer xenografts; assay: Tumor growth inhibition of HCT-116 human colon cancer xenografts in nude mice; assay type: in vivo, Balb/c nude mice; settings: D1 400 mg/kg Day 7; D2 400 mg/kg Day 9; D3 350 mg/kg Day 11; D4 300 mg/kg Day 11; single IP
MEASUREMENT_KIND: Tumor inhibition rate, maximum (%)
// return numeric value only (unit: %, not printed)

For CCCCOC(=O)Nc1ccn(C2OC(COC(=O)CCCC(=O)OC[C@H]3O[C@@H](n4ccc(NC(=O)OCCCC)nc4=O)C(F)(F)[C@@H]3OC(=O)OCCCC)C(OC(=O)OCCCC)C2(F)F)c(=O)n1 (stereo in doubt) [Compound D1] the molecule record lists Tumor inhibition rate, maximum as 91.49

For O=C(CCCC(=O)OC[C@H]1O[C@@H](n2ccc(NC(=O)OCc3ccccc3)nc2=O)C(F)(F)[C@@H]1O)OC[C@H]1O[C@@H](n2ccc(NC(=O)OCc3ccccc3)nc2=O)C(F)(F)[C@@H]1O the molecule record lists Tumor inhibition rate, maximum as 98.54

For CCCCOC(=O)Nc1ccn([C@H]2O[C@@H](COC(=O)CCC(=O)OC[C@H]3O[C@@H](n4ccc(NC(=O)OCCCC)nc4=O)C(F)(F)[C@@H]3O)[C@H](O)C2(F)F)c(=O)n1 (stereo in doubt) [Compound D2] the molecule record lists Tumor inhibition rate, maximum as 94.79

Next, consider the following molecule.
For CCCCOC(=O)Nc1ccn(C2OC(COC(=O)CCC(=O)OC[C@H]3O[C@@H](n4ccc(NC(=O)OCc5ccccc5)nc4=O)C(F)(F)[C@@H]3O)C(O)C2(F)F)c(=O)n1 (stereo in doubt) the molecule record lists Tumor inhibition rate, maximum as 97.32

---

assay: Body weight / toxicity of a single intraperitoneal injection in HCT-116 colon tumor-bearing nude mice; settings: Day 4; single IP injection (QD×1); D1 and D2 400 mg/kg, D3 350 mg/kg, D4 300 mg/kg; Mean±SEM
MEASUREMENT_KIND: Average weight of the animals (g)
// return numeric value only (unit: g, not printed)

Check out these entries, answers already filled in.
For O=C(CCCC(=O)OC[C@H]1O[C@@H](n2ccc(NC(=O)OCc3ccccc3)nc2=O)C(F)(F)[C@@H]1O)OC[C@H]1O[C@@H](n2ccc(NC(=O)OCc3ccccc3)nc2=O)C(F)(F)[C@@H]1O the compound record lists Average weight of the animals as 18.24

For CCCCOC(=O)Nc1ccn(C2OC(COC(=O)CCCC(=O)OC[C@H]3O[C@@H](n4ccc(NC(=O)OCCCC)nc4=O)C(F)(F)[C@@H]3OC(=O)OCCCC)C(OC(=O)OCCCC)C2(F)F)c(=O)n1 (stereo in doubt) [Compound D1] the compound record lists Average weight of the animals as 16.15

For CCCCOC(=O)Nc1ccn([C@H]2O[C@@H](COC(=O)CCC(=O)OC[C@H]3O[C@@H](n4ccc(NC(=O)OCCCC)nc4=O)C(F)(F)[C@@H]3O)[C@H](O)C2(F)F)c(=O)n1 (stereo in doubt) [Compound D2] the compound record lists Average weight of the animals as 17.75

Next, consider the following compound.
For CCCCOC(=O)Nc1ccn(C2OC(COC(=O)CCC(=O)OC[C@H]3O[C@@H](n4ccc(NC(=O)OCc5ccccc5)nc4=O)C(F)(F)[C@@H]3O)C(O)C2(F)F)c(=O)n1 (stereo in doubt) the compound record lists Average weight of the animals as 19.07

---

test: Body weight / toxicity of a single intraperitoneal injection in HCT-116 colon tumor-bearing nude mice; conditions: Day 9; single IP injection (QD×1); D1 and D2 400 mg/kg, D3 350 mg/kg, D4 300 mg/kg
Here the recorded Average rate of weight change of the animals is given for each entry.
// return numeric value only (unit: %, not printed)

Check out these entries, answers already filled in.
For CCCCOC(=O)Nc1ccn(C2OC(COC(=O)CCCC(=O)OC[C@H]3O[C@@H](n4ccc(NC(=O)OCCCC)nc4=O)C(F)(F)[C@@H]3OC(=O)OCCCC)C(OC(=O)OCCCC)C2(F)F)c(=O)n1 (stereo in doubt) [Compound D1] the compound record lists Average rate of weight change of the animals as 0.42

For CCCCOC(=O)Nc1ccn([C@H]2O[C@@H](COC(=O)CCC(=O)OC[C@H]3O[C@@H](n4ccc(NC(=O)OCCCC)nc4=O)C(F)(F)[C@@H]3O)[C@H](O)C2(F)F)c(=O)n1 (stereo in doubt) [Compound D2] the compound record lists Average rate of weight change of the animals as 0.21

For O=C(CCCC(=O)OC[C@H]1O[C@@H](n2ccc(NC(=O)OCc3ccccc3)nc2=O)C(F)(F)[C@@H]1O)OC[C@H]1O[C@@H](n2ccc(NC(=O)OCc3ccccc3)nc2=O)C(F)(F)[C@@H]1O the compound record lists Average rate of weight change of the animals as 4.50

Next, consider the following compound.
For CCCCOC(=O)Nc1ccn(C2OC(COC(=O)CCC(=O)OC[C@H]3O[C@@H](n4ccc(NC(=O)OCc5ccccc5)nc4=O)C(F)(F)[C@@H]3O)C(O)C2(F)F)c(=O)n1 (stereo in doubt) the compound record lists Average rate of weight change of the animals as 2.91

---

Here the recorded Average weight of the animals is given for each entry.
experiment: Body weight / toxicity of a single intraperitoneal injection in HCT-116 colon tumor-bearing nude mice; details: Day 23; single IP injection (QD×1); D1 and D2 400 mg/kg, D3 350 mg/kg, D4 300 mg/kg; Mean±SEM
// return numeric value only (unit: g, not printed)

Check out these entries, answers already filled in.
For CCCCOC(=O)Nc1ccn(C2OC(COC(=O)CCCC(=O)OC[C@H]3O[C@@H](n4ccc(NC(=O)OCCCC)nc4=O)C(F)(F)[C@@H]3OC(=O)OCCCC)C(OC(=O)OCCCC)C2(F)F)c(=O)n1 (stereo in doubt) [Compound D1] the compound record lists Average weight of the animals as 22.60

For CCCCOC(=O)Nc1ccn(C2OC(COC(=O)CCC(=O)OC[C@H]3O[C@@H](n4ccc(NC(=O)OCc5ccccc5)nc4=O)C(F)(F)[C@@H]3O)C(O)C2(F)F)c(=O)n1 (stereo in doubt) the compound record lists Average weight of the animals as 22.03

For O=C(CCCC(=O)OC[C@H]1O[C@@H](n2ccc(NC(=O)OCc3ccccc3)nc2=O)C(F)(F)[C@@H]1O)OC[C@H]1O[C@@H](n2ccc(NC(=O)OCc3ccccc3)nc2=O)C(F)(F)[C@@H]1O the compound record lists Average weight of the animals as 22.44

Next, consider the following compound.
For CCCCOC(=O)Nc1ccn([C@H]2O[C@@H](COC(=O)CCC(=O)OC[C@H]3O[C@@H](n4ccc(NC(=O)OCCCC)nc4=O)C(F)(F)[C@@H]3O)[C@H](O)C2(F)F)c(=O)n1 (stereo in doubt) [Compound D2] the compound record lists Average weight of the animals as 20.60

---

test: Body weight / toxicity of a single intraperitoneal injection in HCT-116 colon tumor-bearing nude mice; conditions: Day 11; single IP injection (QD×1); D1 and D2 400 mg/kg, D3 350 mg/kg, D4 300 mg/kg; Mean±SEM
Here the recorded Average weight of the animals is given for each entry.
// return numeric value only (unit: g, not printed)

For O=C(CCCC(=O)OC[C@H]1O[C@@H](n2ccc(NC(=O)OCc3ccccc3)nc2=O)C(F)(F)[C@@H]1O)OC[C@H]1O[C@@H](n2ccc(NC(=O)OCc3ccccc3)nc2=O)C(F)(F)[C@@H]1O [Compound D3] the compound record lists Average weight of the animals as 21.12

Others:
For CCCCOC(=O)Nc1ccn([C@H]2O[C@@H](COC(=O)CCC(=O)OC[C@H]3O[C@@H](n4ccc(NC(=O)OCCCC)nc4=O)C(F)(F)[C@@H]3O)[C@H](O)C2(F)F)c(=O)n1 (stereo in doubt) [Compound D2] the compound record lists Average weight of the animals as 20.42

For CCCCOC(=O)Nc1ccn(C2OC(COC(=O)CCCC(=O)OC[C@H]3O[C@@H](n4ccc(NC(=O)OCCCC)nc4=O)C(F)(F)[C@@H]3OC(=O)OCCCC)C(OC(=O)OCCCC)C2(F)F)c(=O)n1 (stereo in doubt) [Compound D1] the compound record lists Average weight of the animals as 21.25

For CCCCOC(=O)Nc1ccn(C2OC(COC(=O)CCC(=O)OC[C@H]3O[C@@H](n4ccc(NC(=O)OCc5ccccc5)nc4=O)C(F)(F)[C@@H]3O)C(O)C2(F)F)c(=O)n1 (stereo in doubt) [Compound D4] the compound record lists Average weight of the animals as 21.05
